PROCEDURE DETAILS: Liver microsomal stability, rat liver microsomes
Assay type: in vitro ADME
RUN PARAMETERS: 1 μM compound, NADPH, read-out: t1/2 (min) in RLM
TEST READOUT: half-life at 1 μM

Worked examples, 6 compounds total:
{"COMPOUND": "COc1ncnc(C2CC2)c1-c1ncc2cnn(Cc3ccc(-n4nc(C(F)(F)F)cc4OCCO)cc3)c2n1", "RESULT": "> 25 min"}
{"COMPOUND": "Cn1cc(C(F)(F)F)nc1-c1ccc(Cn2ncc3cnc(-c4ccccc4S(C)(=O)=O)nc32)cc1", "RESULT": "> 25 min"}
{"COMPOUND": "COc1ncnc(C2CC2)c1-c1ncc2nc(C(C)C)n(Cc3ccc(-c4nc(C(F)(F)F)cn4C(C)C)cc3)c2n1", "RESULT": "> 25 min"}
{"COMPOUND": "COc1ncnc(C2CC2)c1-c1ncc2cnn(Cc3ccc(-c4nc(C#N)cn4C)cc3)c2n1", "RESULT": "< 25 min"}
{"COMPOUND": "CCn1cc(C(F)(F)F)nc1-c1ccc([C@H](C)n2ncc3cnc(-c4c(OC)ncnc4C4CCC4)nc32)cc1 (single isomer, unassigned)", "RESULT": "< 25 min"}
{"COMPOUND": "Cc1cnn(C(C)C)c1-c1ncc2cnn(Cc3ccc(-n4nc(C(F)(F)F)cc4C)cc3)c2n1", "RESULT": "< 25 min"}

Next, consider the following compound.
Q: What measured half-life at 1 μM goes with COc1ncnc(C2CC2)c1-c1ncc2cnn(Cc3ccc(-c4nc(C(F)(F)F)cn4C4CCOC4)cc3)c2n1 (stereo not shown) ?
Ans: < 25 min

* * *

PROCEDURE DETAILS: Liver microsomal stability, human liver microsomes
Format: in vitro ADME
RUN PARAMETERS: 1 μM compound, NADPH, read-out: t1/2 (min) in HLM
TEST READOUT: half-life at 1 μM

{"COMPOUND": "COc1ncnc(C2CC2)c1-c1ncc2cnn([C@@H](C)c3ccc(-c4nc(C(F)(F)F)cn4C(C)C)cc3)c2n1", "half-life at 1 μM": "> 25 min"}

Q: What measured half-life at 1 μM goes with CCn1cc(C(F)(F)F)nc1-c1ccc([C@H](C)n2ncc3cnc(-c4c(OC)ncnc4C(C)C)nc32)cc1 ?
Ans: < 25 min

Q: What measured half-life at 1 μM goes with COc1ncnc(C2CC2)c1-c1ncc2c(OC)nn([C@@H](C)c3ccc(-c4nc(C(F)(F)F)c(Br)n4C)cc3)c2n1 ?
Ans: > 25 min

Q: What measured half-life at 1 μM goes with COc1cn(C(C)C)c(-c2ccc(Cn3ncc4cnc(-c5c(OC)ncnc5C5CC5)nc43)cc2)n1 ?
Ans: < 25 min

Q: What measured half-life at 1 μM goes with Cc1cc(C(F)(F)F)nn1-c1ccc(Cn2ncc3cnc(-c4cccnc4C#N)nc32)cc1 ?
Ans: > 25 min

Q: What measured half-life at 1 μM goes with COc1cccc(C)c1-c1ncc2cnn(Cc3ccc(-c4nc(C(F)(F)F)cn4C)cc3)c2n1 ?
Ans: < 25 min

Q: What measured half-life at 1 μM goes with CCOc1cc(C(F)(F)F)nn1-c1ccc(Cn2ncc3cnc(-c4c(OC)ncnc4C4CC4)nc32)cc1 ?
Ans: > 25 min

* * *

PROCEDURE DETAILS: ADME solubility determination at pH 2.0 and pH 7.4
Format: physicochemical
RUN PARAMETERS: aqueous buffer, thermodynamic from solid; PBS pH 7.4, shaken at 25° C. for 24 hours, LC-MS/MS; read-out: Solubility at pH 7.4
Listing of entries alongside the reported solubility at 24 h.

Worked examples, 2 molecules total:
{"MOLECULE": "COc1cccc(C)c1-c1ncc2cnn(Cc3ccc(-c4nc(C(F)(F)F)cn4C)cc3)c2n1", "solubility at 24 h": "< 10 µM"}
{"MOLECULE": "CCn1cc(C(F)(F)F)nc1-c1ccc([C@H](C)n2ncc3cnc(-c4c(OC)ncnc4C(C)C)nc32)cc1", "solubility at 24 h": "> 10 µM"}

Q: What measured solubility at 24 h goes with COCCOc1cc(C(F)(F)F)nn1-c1ccc(Cn2ncc3cnc(-c4c(OC)ncnc4C4CC4)nc32)cc1 ?
Ans: < 10 µM

Q: What measured solubility at 24 h goes with COCCOc1ncnc(C2CC2)c1-c1ncc2cnn(Cc3ccc(-n4nc(C(F)(F)F)cc4C)cc3)c2n1 ?
Ans: > 10 µM

Q: What measured solubility at 24 h goes with CSc1ncnc(C)c1-c1ncc2cnn(Cc3ccc(-n4nc(C(F)(F)F)cc4C)cc3)c2n1 ?
Ans: < 10 µM

Q: What measured solubility at 24 h goes with COc1ncnc(C2CC2)c1-c1ncc2nnn(Cc3ccc(-c4nc(C(F)(F)F)cn4C)cc3)c2n1 ?
Ans: > 10 µM
